- TEST_TARGET: T1, RSV F subtype B, furin-cleaved ectodomain stabilized in the prefusion conformation (DS-Cav1) (Respiratory syncytial virus subtype B)
- T1 construct: extracellular domain; Trimeric soluble antigen; also called Prefusion subtype B
- ASSAY_PROCEDURE: BLI, IgG on AHQ sensor, 100 nM antigen
MEASURE_NAME: pKd
Note on units: pKd is unitless, being -log10 of a concentration expressed in mol/L.

ADI-18909 (antibody, V domains shown, full-length IgG from yeast; also called Antibody Number 264; Ab # 264) VH: QVQLQESGPGLVKPSQTLSLTCTVSGRFLNSGDYYWSWIRQSPGKGLEWLGYIHHSGNTYYNPSLKSRLTISLDMSKNQFSLKLSSVTAADTAVYYCARDLGKPLWDGHYYYGVDVWGQGTTVTVSS VL: DIVMTQSPGTLSLSPGERATLSCRTSQNVNSNYLAWYQHKPGQAPRLLIYGASSRVTGIPDRFSGSGSGTDFTLTITRVESEDFAVYYCQVYSSSPPITFGQGTKVEIK: 9.54
ADI-18943 (antibody, V domains shown, full-length IgG from yeast) VH: QVQLQESGPGLVKPSETLSLTCSVSGASVTSREYYWGWIRQAPGKGLQWIASIHHSPFQSDGNPSLTSRVSSSVVTSKNQLALRLSSVTAADTAVYYCAGAFWEVWTGLYSPPFDFWGQGILVTVSS VL: EIVMTQSPGTLSLSPGERATLSCWASQTVSSGYLAWYQQKPGQAPRLLIYGASTRATDIPDRFSGSGSGTGFTLTISRLEPEDLAVYYCQQYSSSPLTFGGGTKVEIK: 9.14
ADI-18897 (antibody, V domains shown, full-length IgG from yeast) VH: EVQLVESGGGLVQPGGSLRLSCAASGFTIGTYWMSWVRQAPGKGLEWVANIKPDGSEQYYGDSVKGRFTISRDNAKNSLYLQMHSLRAEDAAVFYCARDTPDVLRHLEWPPVGAFDIWGQGTTVTVSS VL: EIVMTQSPDSLAVSLGERATINCKSSQSLFYSSTNQHYLAWYQQKPGQPPELLIYWASIRESGVPDRFSGSGSGTDFTLTISSLQAADVAVYYCQQYYSSPQTFGQGTKVEIK: 8.82
ADI-18957 (antibody, V domains shown, full-length IgG from yeast) VH: EVQLLESGGGLVKPGESLRLSCAASGFTLSGYYMNWVRQAPGRGLEWVSSISGGSNYINYADSVKGRFTISRDNAKNSLYLQMNSLRVEDTAVYYCARVHVDLVTTIFGVDFDFWGQGTLVTVSS VL: QSVLTQPPSVSGAPGQRVTISCTGSSSNIGAGYDVHWYQQLPGTAPKLLIYGNTNRPAGVPDRFSGSKSGSSASLAITGLQAEDEADYYCQSYDSSLSGAIFGGGTKLTVL: 9.49
ADI-18899 (antibody, V domains shown, full-length IgG from yeast) VH: EVQLVESGGGVVQSGRSLRLSCAASGFTFSDNGMHWVRQAPGKGLEWVAGIFYDGSNKQYADSVKGRFTISRDNSKSTLYLQMNSLRAEDTAVYYCARAPYDIWSGYCLDYWGQGTLVTVSS VL: DIRLTQSPATLSMSPGERATLSCRASQSVNNNLAWYQQRPGQAPRLLIYGASTRATGIPARFSGSGSETEFTLTISSLQSEDFAVYHCQQYSIWPQTFGQGTKVDIK: 8.80

Now look at this one.
Q: Using known records, supply pKd for ADI-18969 (antibody, V domains shown, full-length IgG from yeast; also called Antibody Number 317; Ab # 317) VH: QVQLVQSGPEVKKPGASVTVSCKASGYTFSHYGISWVRQAPGQGLEWMGWISAYHGQTNYAQNFQGRVTMTTDTSSNTAYMEVRSLRSDDTAVYFCARDVFSKTAARIFDYWGQGTLVTVSS VL: EIVLTQSPLSLPVTLGQPASISCRSSQSLEYSDGNTYLSWFQQRPGQSPRRLIYKVSNRDSGVPDRFSGSQSGTDFTLKISRVEAEDVGVYYCMQATDWPVTFGQGTKLEIK
Result: 9.53
